Every entry's value here was drawn from PubChem BioAssay AID1745844.

# Test system: rodent lifetime carcinogenesis bioassay, tumor incidence TD50
# EXPERIMENTAL_PROTOCOL: carcinogenic potency in animals, long-term in vivo studies, CPDB compilation (AID 1745844)
# CONDITION_NOTES: rat; strain Osborne-Mendel; females; in feed; site: any site (literature study); lesion: several types; types named in the paper; dosed 113 weeks; study length 113 weeks
Activity calls are given as the source filed them. How the calls were made is not given here.
MEASURED_PARAMETER: TD50

> print(dat)
   structure.smiles.string                        measurement.target  measured.parameter             value.reported
1                  NC(N)=S  rodent lifetime carcinogenesis bioassay, tumor incidence TD50                TD50  16.2 mg/kg/day (inactive)

----------
# Tested on: rodent lifetime carcinogenesis bioassay, tumor incidence TD50
# EXPERIMENTAL_PROTOCOL: carcinogenic potency in animals, long-term in vivo studies, CPDB compilation (AID 1745844)
# CONDITION_NOTES: mouse; strain C3HeB/Fe; both sexes; in feed; site: lung; lesion: carcinoma; dosed 104 weeks; study length 104 weeks
MEASURED_PARAMETER: TD50 (mg/kg/day)

> print(dat)
                    structure.smiles.string  measured.parameter  value.reported
1  ClC1=C(Cl)[C@]2(Cl)[C@H]3[C@H]([C@@H]4C=C[C@H]3C4)[C@@]1(Cl)C2(Cl)Cl                TD50             129

----------
# Tested on: rodent lifetime carcinogenesis bioassay, tumor incidence TD50
# EXPERIMENTAL_PROTOCOL: carcinogenic potency in animals, long-term in vivo studies, CPDB compilation (AID 1745844)
# CONDITION_NOTES: rat; strain Fischer 344; males; in drinking water; site: liver; lesion: hyperplastic nodule; dosed 30 weeks; study length 123 weeks
MEASURED_PARAMETER: TD50 (mg/kg/day)

> print(dat)
   structure.smiles.string                        measurement.target  measured.parameter  value.reported
1                C=C/C=N/O  rodent lifetime carcinogenesis bioassay, tumor incidence TD50                TD50            29.3

----------
# Test system: rodent lifetime carcinogenesis bioassay, tumor incidence TD50
# EXPERIMENTAL_PROTOCOL: carcinogenic potency in animals, long-term in vivo studies, CPDB compilation (AID 1745844)
# CONDITION_NOTES: mouse; strain B6C3F1; males; in feed; site: lung; lesion: alveolar-cell adenoma; dosed 96 weeks; study length 96 weeks
MEASURED_PARAMETER: TD50

> print(dat)
   structure.smiles.string                        measurement.target  value.reported
1  O=C(O)C=Cc1ccc(O)c(O)c1  rodent lifetime carcinogenesis bioassay, tumor incidence TD50  6110 mg/kg/day

----------
# Test system: rodent lifetime carcinogenesis bioassay, tumor incidence TD50
# EXPERIMENTAL_PROTOCOL: carcinogenic potency in animals, long-term in vivo studies, CPDB compilation (AID 1745844)
# CONDITION_NOTES: rat; strain F344/DuCrj; males; in drinking water; site: abdominal cavity; lesion: mesothelioma; dosed 104 weeks; study length 112 weeks
The source made the active and inactive calls. No rule for the calls is given here.
MEASURED_PARAMETER: TD50

> print(dat)
                                   compound             value.reported
1  O=C(O)C1=NN(c2ccc(S(=O)(=O)O)cc2)C(=O)C1N=Nc1ccc(S(=O)(=O)O)cc1 (stereo unspecified)  2820 mg/kg/day (inactive)
